method.description: chemical genetic growth profiling, strain panel (AID 1159580);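 further: tested at 20 µM; growth read once vehicle control cultures reached saturation at 30 °C; 1 = growth at the plate median or of vehicle wells; lower values mean less growth of the strain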
condition.notes: S. cerevisiae deletion strains, growth OD, locus YNL248C, strain rpa49, hits give low values
In all, about 5,500 compounds went through this assay and about 2,000 (36%) were called active. About 18% were inconclusive and are not listed. Some of the results follow.
readout.label: normalized growth
Give the value as a plain number.

I would be grateful if you could share the reported normalized growth for CCCCOC(=O)c1ccccc1C(=O)OCCCC .
0.987

normalized growth lookup needed for CCN(CC)CCOC(=O)c1ccc(N)cc1 , thanks.
0.938

Reported normalized growth, compound CC(C)C(=O)Nc1ccc([N+](=O)[O-])c(C(F)(F)F)c1 : ____
1.06

Form field: reported normalized growth of CCCCN(CCCC)CCCOC(=O)c1ccc(N)cc1
0.976

Which value of normalized growth has been reported for CC1(C)NC(=O)N(c2ccc([N+](=O)[O-])c(C(F)(F)F)c2)C1=O in the records?
0.98

Recorded normalized growth for CCCCC(=O)Oc1ccccc1C(=O)O , please?
0.959

====

Could you please report measured normalized growth for the items listed next?
method.description: chemical genetic growth profiling, strain panel (AID 1159580);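 further: tested at 20 µM; growth read once vehicle control cultures reached saturation at 30 °C; 1 = growth at the plate median or of vehicle wells; lower values mean less growth of the strain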
condition.notes: S. cerevisiae deletion strains, growth OD, strain wtn01, hits give low values
The campaign covered roughly 5,500 compounds. About 2,000 (36%) were called active. Not shown: some 18% with an inconclusive outcome. The list shows a part of the results.
Give the value as a plain number.

I have this molecule here, CC(C)COCC(CN(Cc1ccccc1)c1ccccc1)N1CCCC1 (centres undefined) , and I need its recorded normalized growth.
0.912

Would you kindly share the measured normalized growth for CC1(C)O[C@@H]2CC3C4CCC5=CC(=O)CCC5(C)C4(F)C(O)CC3(C)[C@]2(C(=O)CCl)O1 (some centres undefined) ?
0.987

Please give the measured normalized growth for this molecule: CC(C)NCC(O)c1cc(O)cc(O)c1 (centres undefined)
0.998

Name the reported normalized growth value associated with the molecule O=S1OCC2C(CO1)C1(Cl)C(Cl)=C(Cl)C2(Cl)C1(Cl)Cl (centres undefined)
0.954

Returns the measured normalized growth for the input molecule. Input: COc1ccc([C@H]2Oc3cc(OC)cc(OC)c3C[C@H]2O)cc1
0.992

What value of normalized growth has been recorded for this entry: C=CCSCC1Nc2cc(Cl)c(S(N)(=O)=O)cc2S(=O)(=O)N1 (centres undefined)
1.02

Give its normalized growth value. Item: NC[C@@H]1CC[C@@H](N)[C@@H](O[C@H]2[C@H](O)[C@@H](O[C@H]3O[C@H](CO)[C@@H](O)[C@H](N)[C@H]3O)[C@H](N)C[C@@H]2N)O1
0.987

Please give the measured normalized growth for this molecule: O=C(O)c1ccccc1-c1c2cc(Br)c(=O)cc-2oc2[c]([Hg])c(O)c(Br)cc12
0.062

Which measured normalized growth value corresponds to COc1ccc2c(c1)O[C@H]1c3ccc(OC)cc3OC[C@@H]21 ?
0.886

====

method.description: chemical genetic growth profiling, strain panel (AID 1159580);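 further: tested at 20 µM; growth read once vehicle control cultures reached saturation at 30 °C; 1 = growth at the plate median or of vehicle wells; lower values mean less growth of the strain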
condition.notes: S. cerevisiae deletion strains, growth OD, locus YER015W, strain faa2
Hit rate of the full screen: of about 5,500 compounds, about 2,000 (36%) were called active. Inconclusive results (about 18%) are left out. No stated cut-off is given here; in the data, active means normalized growth mostly below about 0.91 (no sharp cut-off); inconclusive means no clear call, values can overlap the other calls; inactive means mostly above about 0.92. The list shows a part of the results.
Choose the fitting class; nothing outside active, inactive is accepted.

Can you look up the reported call for O=C1CC2OCC=C3CN4CC[C@]56c7ccccc7N1C5[C@H]2[C@H]3CC46 (some centres undefined) for me?
inactive

Answer briefly: the call reported for COc1cc([C@@H]2c3cc4c(c(O)c3C[C@H]3COC(=O)[C@@H]32)OCO4)cc(OC)c1OC in this assay.
inactive

Entry C=C1CCC2C(CC2(C)C)C(=C)CC/C1=N\O (centres undefined) : call = ?
inactive

How was Cn1c(=O)c2[nH]cnc2n(C)c1=O classified in this test?
inactive

Recorded call for CC[C@H](C)C(=O)O[C@H]1CCC=C2C=C[C@H](C)C(CCC3C[C@@H](O)CC(=O)O3)[C@H]21 (some centres undefined) ?
inactive

Recorded call for C=C1CCC(OC(C)=O)/C(C)=C/C[C@@H]2[C@@H]1CC2(C)C (some centres undefined) ?
inactive

I would be grateful if you could indicate the recorded call for CC[C@H](C)C(=O)O[C@H]1C[C@@H](C)C=C2C=C[C@H](C)[C@H](CC[C@@H]3C[C@@H](O)CC(=O)O3)[C@H]21 .
inactive

# lookup: test call for CCC(C)(C)C(=O)O[C@H]1C[C@@H](C)C=C2C=C[C@H](C)[C@H](CC[C@@H]3C[C@@H](O)CC(=O)O3)[C@H]21
active

Dear colleague, could you share the recorded outcome for C[C@H]1CC[C@@H](C(C)(C)O)CC2=C1CC[C@@H]2C when you have a moment?
inactive
